Tested on: Mycobacterium tuberculosis Erdman (autoluminescent)
Assay: AUC25, normalised area under dose response up to IC25 (fraction (0-1)); higher = more potent at low dose
Conditions: in vitro model: valerate; time point: constant (~7 days, model-specific)
# cutoff 0.05 applies to AUC25; >= gives Met, < gives Not met

>>> classification("CC(=O)NC[C@H]1CN(c2ccc(N3CCOCC3)c(F)c2)C(=O)O1 [linezolid] + CO[C@H]1/C=C/O[C@@]2(C)Oc3c(C)c(O)c4c(O)c(c(/C=N/N5CCN(C6CCCC6)CC5)c(O)c4c3C2=O)NC(=O)/C(C)=C\\C=C\\[C@H](C)[C@H](O)[C@@H](C)[C@@H](O)[C@@H](C)[C@H](OC(C)=O)[C@@H]1C [rifapentine]")
"Met"
>>> classification("NNC(=O)c1ccncc1 [isoniazid] + CO[C@H]1/C=C/O[C@@]2(C)Oc3c(C)c(O)c4c(O)c(c(/C=N/N5CCN(C)CC5)c(O)c4c3C2=O)NC(=O)/C(C)=C\\C=C\\[C@H](C)[C@H](O)[C@@H](C)[C@@H](O)[C@@H](C)[C@H](OC(C)=O)[C@@H]1C [rifampicin]")
"Not met"
>>> classification("NNC(=O)c1ccncc1 [isoniazid] + CO[C@H]1/C=C/O[C@@]2(C)Oc3c(C)c(O)c4c(O)c(c(/C=N/N5CCN(C6CCCC6)CC5)c(O)c4c3C2=O)NC(=O)/C(C)=C\\C=C\\[C@H](C)[C@H](O)[C@@H](C)[C@@H](O)[C@@H](C)[C@H](OC(C)=O)[C@@H]1C [rifapentine]")
"Not met"
>>> classification("NNC(=O)c1ccncc1 [isoniazid] + CC(=O)NC[C@H]1CN(c2ccc(N3CCOCC3)c(F)c2)C(=O)O1 [linezolid]")
"Met"

# bool: AUC25 of CC(C)/N=c1\cc2n(-c3ccc(Cl)cc3)c3ccccc3nc-2cc1Nc1ccc(Cl)cc1 [clofazimine] + NNC(=O)c1ccncc1 [isoniazid] >= 0.05
Met

Does the compound COc1nc2ccc(Br)cc2cc1[C@@H](c1ccccc1)[C@@](O)(CCN(C)C)c1cccc2ccccc12 [bedaquiline] + O=[N+]([O-])c1cn2c(n1)OC[C@@H](OCc1ccc(OC(F)(F)F)cc1)C2 [pretomanid] have recorded AUC25 that is 0.05 or more?
Met
